systemUnderTest: CYP3A4 (Homo sapiens, UniProt P08684)
Sequence (P08684 whole entry, canonical isoform): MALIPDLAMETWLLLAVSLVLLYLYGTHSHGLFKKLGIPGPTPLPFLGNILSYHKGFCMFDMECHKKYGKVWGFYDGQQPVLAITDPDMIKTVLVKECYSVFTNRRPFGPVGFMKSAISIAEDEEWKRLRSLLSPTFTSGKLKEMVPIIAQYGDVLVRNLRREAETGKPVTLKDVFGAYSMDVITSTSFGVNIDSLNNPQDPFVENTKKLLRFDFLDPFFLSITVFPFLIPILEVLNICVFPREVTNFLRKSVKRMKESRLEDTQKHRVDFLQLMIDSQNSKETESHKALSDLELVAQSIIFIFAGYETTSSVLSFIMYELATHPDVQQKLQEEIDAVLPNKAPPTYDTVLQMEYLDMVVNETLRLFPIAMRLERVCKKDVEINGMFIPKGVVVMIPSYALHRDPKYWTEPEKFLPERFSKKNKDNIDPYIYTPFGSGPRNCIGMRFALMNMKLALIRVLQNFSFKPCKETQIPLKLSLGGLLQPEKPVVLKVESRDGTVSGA
methodSummary: Cytochrome P450 inhibition IC50 determination (isoform CYP3A4)
Type: in vitro ADME
condition: human, probe testosterone; CYP3A4, 10 μM; read-out: % inhibition with substrate testosterone
Description: Two thirds of drugs cleared by metabolism are metabolised at least in part by the cytochrome P450 (CYP) enzymes with the isoform CYP3A4 accounting for almost 50% of all CYP activity. For this reason, we tested whether CYP3A4 is implicated in the clearance of o-TFB-Tyr. […]
quantity: inhibition at 10 µM (%)
Respond with the bare value in %.

Q) Which inhibition at 10 µM is listed for N[C@@H](Cc1ccc(O)cc1)C(=O)NCc1ccccc1C(F)(F)F ?
A) 77.3
